System: S. aureus
Experiment: MIC (microbroth dilution)
Assay type: cell-based, Staphylococcus aureus
Details: Staphylococcus aureus, NCTC13277, NCTC 13277; read-out: MIC
Overview of recorded MIC for various molecules

- molecule: "O=C(O)c1cn(C2CC2)c2cc(N3CCN(Cc4ccc5ccccc5c4)CC3)c(F)cc2c1=O"
  MIC: "2 µg/mL"
- molecule: "O=C(O)c1cn(C2CC2)c2c(Cc3cccc4ccccc34)c(N3CCNCC3)c(F)cc2c1=O"
  MIC: "32 µg/mL"
- molecule: "CCn1cc(C(=O)O)c(=O)c2cc(F)c(N3CCN(Cc4cccc5ccsc45)CC3)cc21"
  MIC: "2 µg/mL"
- molecule: "CCn1cc(C(=O)O)c(=O)c2cc(F)c(N3CCN(Cc4cccc5c4OCO5)CC3)cc21"
  MIC: "> 32 µg/mL"
- molecule: "C[C@H]1COc2c(N3CCN(Cc4cccc5ccccc45)CC3)c(F)cc3c(=O)c(C(=O)O)cn1c23"
  MIC: "2 to 4 µg/mL"
- molecule: "C[C@H]1COc2c(N3CC[C@@H](Nc4cnccn4)C3)c(F)cc3c(=O)c(C(=O)O)cn1c23"
  MIC: "1 µg/mL"
- molecule: "CCn1cc(C(=O)O)c(=O)c2cc(F)c(N3CCN(Cc4ccc(F)c5ccccc45)CC3)cc21"
  MIC: "8 µg/mL"
- molecule: "CCn1cc(C(=O)O)c(=O)c2cc(F)c(N3CCN(Cc4ccccc4)CC3)cc21"
  MIC: "16 to 32 µg/mL"
- molecule: "O=C(O)c1cn(C2CC2)c2cc(N3CCN(Cc4ccc(-c5ccccc5)cc4)CC3)c(F)cc2c1=O"
  MIC: "2 µg/mL"
- molecule: "C[C@H]1COc2c(N3CC[C@H](Nc4ncccn4)C3)c(F)cc3c(=O)c(C(=O)O)cn1c23"
  MIC: "8 µg/mL"
- molecule: "O=C(O)c1cn(C2CC2)c2cc(N3CCN(Cc4ccc(F)c5ccccc45)CC3)c(F)cc2c1=O"
  MIC: "8 µg/mL"
- molecule: "O=C(O)c1cn(C2CC2)c2cc(N3CCN[C@@H](Cc4cccc5ccccc45)C3)c(F)cc2c1=O"
  MIC: "8 µg/mL"
- molecule: "CCn1cc(C(=O)O)c(=O)c2cc(F)c(N3CCN(Cc4cccc5ccccc45)CC3)cc21"
  MIC: "2 µg/mL"
- molecule: "CCn1cc(C(=O)O)c(=O)c2cc(F)c(N3CCN(Cc4cccc5cccnc45)CC3)cc21"
  MIC: "128 µg/mL"
- molecule: "Cc1cc(N[C@@H]2CCN(c3c(F)cc4c(=O)c(C(=O)O)cn5c4c3OC[C@@H]5C)C2)ncn1"
  MIC: "0.5 µg/mL"
- molecule: "O=C(O)c1cn(C2CC2)c2cc(N3CCN(Cc4cccc5c4CCCC5)CC3)c(F)cc2c1=O"
  MIC: "1 to 2 µg/mL"
- molecule: "C[C@H]1COc2c(N3CC[C@@H](Nc4ncccn4)C3)c(F)cc3c(=O)c(C(=O)O)cn1c23"
  MIC: "1 µg/mL"
- molecule: "CN(C)c1ccc(CN2CCN(c3cc4c(cc3F)c(=O)c(C(=O)O)cn4C3CC3)CC2)cc1"
  MIC: "16 to 32 µg/mL"
- molecule: "C[C@H]1COc2c(N3CCN(C)CC3)c(F)cc3c(=O)c(C(=O)O)cn1c23 [Levofloxacin, reference compound]"
  MIC: "16 µg/mL"
- molecule: "CCn1cc(C(=O)O)c(=O)c2cc(F)c(N3CCN(Cc4ccc5ccccc5c4)CC3)cc21"
  MIC: "4 µg/mL"
- molecule: "CCn1cc(C(=O)O)c(=O)c2cc(F)c(N3CCN(Cc4cccc5ccccc45)CC3)nc21"
  MIC: "2 to 4 µg/mL"
- molecule: "O=C(O)c1cn(C2CC2)c2cc(N3CCN(Cc4ccccc4)CC3)c(F)cc2c1=O"
  MIC: "32 µg/mL"
- molecule: "C[C@H]1COc2c(N3CC[C@@H](Nc4ncc(F)cn4)C3)c(F)cc3c(=O)c(C(=O)O)cn1c23"
  MIC: "1 µg/mL"
- molecule: "O=C(O)c1cn(C2CC2)c2cc(N3CCN(Cc4cccc5cccnc45)CC3)c(F)cc2c1=O"
  MIC: "128 µg/mL"
- molecule: "CCn1cc(C(=O)O)c(=O)c2cc(F)c(N3CCN(Cc4ccc(-c5ccccc5)cc4)CC3)cc21"
  MIC: "4 µg/mL"
- molecule: "C[C@H]1COc2c(N3CCN(c4ncccn4)CC3)c(F)cc3c(=O)c(C(=O)O)cn1c23"
  MIC: "> 32 µg/mL"
- molecule: "C[C@H]1COc2c(N3CCC(Nc4ncccn4)C3)c(F)cc3c(=O)c(C(=O)O)cn1c23 (stereo partly drawn)"
  MIC: "2 µg/mL"
- molecule: "COc1c(N2CC[C@@H](Nc3ncccn3)C2)c(F)cc2c(=O)c(C(=O)O)cn(C3CC3)c12"
  MIC: "0.125 to 0.25 µg/mL"
- molecule: "CCn1cc(C(=O)O)c(=O)c2cc(F)c(N3CCNCC3)nc21 [Compound 3, enoxacin, reference compound]"
  MIC: "128 µg/mL"
- molecule: "C[C@H]1COc2c(N3CC[C@@H](N)C3)c(F)cc3c(=O)c(C(=O)O)cn1c23"
  MIC: "32 µg/mL"
